Quick reference for nonsense suppression among some variants
B1: tRNA (parent)
chain: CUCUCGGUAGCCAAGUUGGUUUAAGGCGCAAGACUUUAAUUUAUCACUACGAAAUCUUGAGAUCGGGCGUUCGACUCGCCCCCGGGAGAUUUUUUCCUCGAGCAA

- Variants of: B1
- PROCEDURE_TEXT: nonsense suppression (GFP-seq) (ratio to wild type); higher = more function; SUP4oc tRNA, yeast GFP reporter sort-seq
Fewer inactive variants are shown than the library holds.
Returns: the value as a bare number; no unit string appended.

Here are 4 variants together with their reported answers.
>>> print(df.to_string())
       mutation_label  numeric_value
0           C34U G61A         0.0297
1           A30U C77G         0.0332
2                 U4G           1.16
3  U2A C34G G85C A89C           0.25

Problem: nonsense suppression for G61C U76C ?
Solution: 0.23
